Attribute: inhibition
system under test: Nitric oxide synthase, inducible (Rattus norvegicus)
procedure details: Inhibition of iNOS in LPS-induced rat lungs assessed as conversion of L-[3H]arginine to L-[3H]citrulline at 1 mM by liquid scintillation spectroscopy
Kindly provide the numeric value in % only, without the unit symbol.

CCOC(=O)c1cc(C(=O)c2ccccc2N)nn1CC
12.5

// query inhibition value for entry CCOC(=O)C1CC(C(=O)c2cc(OC)ccc2N)=NN1CC (stereo not drawn)
17.1

Same question, `CCCCn1nc(C(=O)c2ccccc2N)cc1C(=O)OCC` this time
5.4

###

Attribute: inhibition
system under test: UniProtKB Q06518
Sequence (Q06518 whole entry): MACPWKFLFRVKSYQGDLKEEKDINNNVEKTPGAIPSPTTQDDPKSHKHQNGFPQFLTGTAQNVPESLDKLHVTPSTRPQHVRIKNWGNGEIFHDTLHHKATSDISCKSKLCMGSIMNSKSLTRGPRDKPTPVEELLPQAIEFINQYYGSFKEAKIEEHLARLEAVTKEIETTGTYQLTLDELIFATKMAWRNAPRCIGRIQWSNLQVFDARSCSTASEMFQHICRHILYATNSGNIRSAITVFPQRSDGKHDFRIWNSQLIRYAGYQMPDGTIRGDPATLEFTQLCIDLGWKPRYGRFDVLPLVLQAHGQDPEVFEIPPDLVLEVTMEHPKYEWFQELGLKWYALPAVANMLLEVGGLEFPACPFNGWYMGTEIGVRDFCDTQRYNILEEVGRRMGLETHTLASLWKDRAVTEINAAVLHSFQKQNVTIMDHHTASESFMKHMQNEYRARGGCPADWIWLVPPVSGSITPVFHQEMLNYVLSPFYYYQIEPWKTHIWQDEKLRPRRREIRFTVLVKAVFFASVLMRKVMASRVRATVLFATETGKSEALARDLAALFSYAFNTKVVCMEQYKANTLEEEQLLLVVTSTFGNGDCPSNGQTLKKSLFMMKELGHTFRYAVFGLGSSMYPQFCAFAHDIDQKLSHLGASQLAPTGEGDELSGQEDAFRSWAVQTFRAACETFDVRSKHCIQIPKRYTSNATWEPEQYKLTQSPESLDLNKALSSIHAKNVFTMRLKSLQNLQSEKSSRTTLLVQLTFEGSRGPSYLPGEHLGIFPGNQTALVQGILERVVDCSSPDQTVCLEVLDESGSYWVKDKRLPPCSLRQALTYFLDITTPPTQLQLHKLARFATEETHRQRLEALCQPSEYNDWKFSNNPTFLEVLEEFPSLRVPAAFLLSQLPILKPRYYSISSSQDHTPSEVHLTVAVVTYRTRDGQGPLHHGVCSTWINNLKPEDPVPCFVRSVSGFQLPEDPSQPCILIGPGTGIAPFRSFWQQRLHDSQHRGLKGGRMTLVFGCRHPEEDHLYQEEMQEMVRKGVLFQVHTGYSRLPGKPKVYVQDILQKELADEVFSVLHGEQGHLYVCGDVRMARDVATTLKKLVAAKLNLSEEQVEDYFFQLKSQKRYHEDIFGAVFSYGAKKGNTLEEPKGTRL
procedure details: Inhibition of iNOS in LPS-induced rat lungs assessed as conversion of L-[3H]arginine to L-[3H]citrulline at 1 mM by liquid scintillation spectroscopy
Kindly provide the numeric value in % only, without the unit symbol.

CCOC(=O)C1CC(C(=O)c2cc(Cl)ccc2N)=NN1Cc1ccccc1 (stereo unspecified)
17.3

Requested read-out inhibition, target or system UniProtKB Q06518, entry `CCOC(=O)c1cc(C(=O)c2cc(OC)ccc2N)nn1Cc1ccccc1`
30.5

Same question, `CCOC(=O)c1cc(C(=O)c2ccccc2N)nn1Cc1ccccc1` this time
13.5

Same question, CCCCN1N=C(C(=O)c2ccccc2N)CC1C(=O)OCC (stereo unspecified) this time
12.2
